- target under test: FXR (Homo sapiens, UniProt Q96RI1)
- Construct: a fusion plasmid of Gal4 DBD-NR-LBD, which included PPARα, PPARβ, PPARγ, RXRα, RXRβ, RXRγ, LXRα, LXRβ, GPBAR, PXR, and FXR
- Sequence (Q96RI1 262-486 limits assumed): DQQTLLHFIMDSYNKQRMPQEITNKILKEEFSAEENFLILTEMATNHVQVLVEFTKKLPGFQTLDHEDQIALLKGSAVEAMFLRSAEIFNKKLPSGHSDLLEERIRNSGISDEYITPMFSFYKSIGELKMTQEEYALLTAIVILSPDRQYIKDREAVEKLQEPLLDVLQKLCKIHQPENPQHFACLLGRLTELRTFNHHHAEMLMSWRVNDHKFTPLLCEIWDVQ
- experiment description: Yeast one-hybrid assay of FXR antagonistic activity in HEK-293T cells
- conditions: HEK-293T cells; CDCA (50 μM) as agonist; mean ± SE of three independent tests
quantity name: pIC50
Field pIC50 (float): negative decimal logarithm of the concentration in molar.

Guide cases for pIC50, answers given:
# compound, pIC50
records = [
    ("COC(=O)NC(CCC(=O)OC1CC2C3(C)CCC(O)C(C)(C)C3CCC2(C)C2(C)CCC3(C(=O)O)CCC(C)(C)CC3C12)C(=O)OC(C)(C)C (centres unmarked) [Compound 19a]", 6.26),
    ("CCC(C)OC(=O)NC(CCC(=O)OC1CC2C3(C)CCC(O)C(C)(C)C3CCC2(C)C2(C)CCC3(C(=O)O)CCC(C)(C)CC3C12)C(=O)OC(C)(C)C (centres unmarked) [Compound 19f]", 6.22),
    ("CC(C)COC(=O)NC(CCC(=O)OC1CC2C3(C)CCC(O)C(C)(C)C3CCC2(C)C2(C)CCC3(C(=O)O)CCC(C)(C)CC3C12)C(=O)OC(C)(C)C (centres unmarked) [Compound 19e]", 6.04),
]

Prompt line: Any idea what pIC50 was measured for CCOC(=O)NC(CCC(=O)OC1CC2C3(C)CCC(O)C(C)(C)C3CCC2(C)C2(C)CCC3(C(=O)O)CCC(C)(C)CC3C12)C(=O)OC(C)(C)C (centres unmarked) [Compound 19b] ?
Response line: 6.24

Prompt line: Find the recorded pIC50 belonging to CC1(C)CCC2(C(=O)O)CCC3(C)C(C(OC(=O)CCC(NC(=O)OC(C)(C)C)C(=O)OC4CCCC4)CC4C5(C)CCC(O)C(C)(C)C5CCC43C)C2C1 (centres unmarked) [Compound 20g] and report it.
Response line: 6.09

Reference for the values: paper PMC10221314
